Tested on: Caco-2
Assay: cell viability relative to DMSO; higher = less toxic
Details: 72 h; 1000 nM
Each entry below carries its recorded cell viability.
EXPERIMENTAL ENDPOINT: cell viability

[[record]]
compound = "c1ccc2sc(SNC3CCCCC3)nc2c1 [N-cyclohexyl-2-benzothiazolesulfenamide]"
readout_value = "101%"

[[record]]
compound = "C[C@@H]1NC(C)(C)CO[C@@]1(O)c1cccc(Cl)c1 [radafaxine]"
readout_value = "99.9%"

[[record]]
compound = "CN(C)C1CCN(C(=O)c2ccc(NC(=O)Nc3ccc(-c4nc(N5CCOCC5)nc(N5CCOCC5)n4)cc3)cc2)CC1"
readout_value = "87.1%"

[[record]]
compound = "Cc1ncc(-c2csc(N=C(N)N)n2)[nH]1 [zaltidine]"
readout_value = "92.5%"

[[record]]
compound = "CNC(=O)[C@H](Cc1ccccc1)NC(=O)[C@H](CC(C)C)[C@H](CSc1cccs1)C(=O)NO [batimastat]"
readout_value = "94.2%"

[[record]]
compound = "Cc1ccc(-c2nn(C(C)(C)CNC(=O)c3ncccc3C)c3ncnc(N)c23)cc1 [WEHI-345-analog]"
readout_value = "101%"

[[record]]
compound = "COc1ccc(-c2coc3cc(O)cc(O)c3c2=O)cc1 [4-methylgenistein]"
readout_value = "104%"

[[record]]
compound = "COc1cc(Nc2ncc(F)c(Nc3ccc4c(n3)NC(=O)C(C)(C)O4)n2)cc(OC)c1OC [R406]"
readout_value = "92.1%"

[[record]]
compound = "CN(C)CCC=C1c2ccccc2CCc2ccccc21 [amitriptyline]"
readout_value = "96.5%"

[[record]]
compound = "Cc1c(F)cccc1NC(=O)Nc1ccc(Cl)c(S(=O)(=O)[C@H]2CCCNC2)c1O [danirixin]"
readout_value = "99.4%"

[[record]]
compound = "C/C=C/C=C/C(=O)O [sorbic-acid]"
readout_value = "99%"

[[record]]
compound = "CCCS(=O)(=O)Nc1ccc(F)c(C(=O)c2c[nH]c3ncc(Cl)cc23)c1F [PLX4720]"
readout_value = "91%"

[[record]]
compound = "Cc1cn([C@H]2C[C@H](N=[N+]=[N-])[C@@H](CO)O2)c(=O)[nH]c1=O [zidovudine]"
readout_value = "98%"

[[record]]
compound = "CCc1ccc(/C=C2/SC(=S)NC2=O)cc1"
readout_value = "108%"

[[record]]
compound = "Cc1cn2c(N)c(Cl)cc(C(=O)NCC3CCN(CC(C)C)CC3)c2n1"
readout_value = "99.7%"

[[record]]
compound = "CCCCCCCCCCCCCCCCCCOP(=O)([O-])OC1CC[N+](C)(C)CC1 [perifosine]"
readout_value = "96.5%"

[[record]]
compound = "NCCCCCC(O)(P(=O)(O)O)P(=O)(O)O [neridronic-acid]"
readout_value = "107%"

[[record]]
compound = "O=S(=O)(c1cccc2c(O)nccc12)N1CCCNCC1 [hydroxyfasudil]"
readout_value = "107%"

[[record]]
compound = "Cc1nc2sccn2c(=O)c1CCN1CCC(=C(c2ccccc2)c2ccc(F)cc2)CC1"
readout_value = "98.4%"

